Tested Target: Serine protease 1 (Homo sapiens, UniProt P07477)
Sequence (P07477 whole entry): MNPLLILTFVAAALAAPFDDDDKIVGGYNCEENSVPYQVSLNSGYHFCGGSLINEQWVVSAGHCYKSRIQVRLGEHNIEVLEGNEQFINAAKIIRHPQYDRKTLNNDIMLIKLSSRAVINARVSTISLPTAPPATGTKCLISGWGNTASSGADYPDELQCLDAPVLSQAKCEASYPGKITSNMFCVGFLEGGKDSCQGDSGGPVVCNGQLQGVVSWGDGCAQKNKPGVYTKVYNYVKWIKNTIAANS
Test Description: Potency index, ratio of SFTI-1 Ki to test compound Ki for human cationic trypsin
Where a SMILES comes first, the peptide text is derived from it. Bridges are numbered along the chain shown (N, C = ends). [ ]: non-standard residue; d: D form. Bip = N[C@@H](Cc1ccc(-c2ccccc2)cc1)C(=O)O; 2Nal = N[C@@H](Cc1ccc2ccccc2c1)C(=O)O
Can you tell me Ratio Ki for the items I'm about to list?
One number for each entry.

# example entries with known answers
Molecule: CC[C@H](C)[C@@H]1NC(=O)[C@@H]2CCCN2C(=O)[C@@H]2CCCN2C(=O)CNC(=O)[C@H](CO)NC(=O)[C@H](CCCNC(=N)N)NC(=O)[C@H]([C@@H](C)O)NC(=O)[C@@H]2CSSC[C@H](NC1=O)C(=O)N[C@@H](Cc1ccccc1)C(=O)N1CCC[C@H]1C(=O)N[C@@H](CC(=O)O)C(=O)NCC(=O)N[C@@H](CCCNC(=N)N)C(=O)N2 (cyclo(CFPDGRCTRSGPPI); disulfide 1-7)
Ratio Ki: 3330
--
Molecule: CC[C@H](C)[C@@H]1NC(=O)[C@@H]2CCCN2C(=O)[C@@H]2CCCN2C(=O)[C@H](Cc2ccc3ccccc3c2)NC(=O)[C@H](CO)NC(=O)[C@H](CCCCN)NC(=O)[C@H]([C@@H](C)O)NC(=O)[C@@H]2CSSC[C@H](NC1=O)C(=O)N[C@@H](Cc1ccccc1)C(=O)N1CCC[C@H]1C(=O)N[C@@H](CC(=O)O)C(=O)NCC(=O)N[C@@H](CCCNC(=N)N)C(=O)N2 (cyclo([2Nal]PPICFPDGRCTKS); disulfide 5-11)
Ratio Ki: 29
--
Molecule: CC[C@H](C)[C@@H]1NC(=O)[C@@H]2CCCN2C(=O)[C@@H]2CCCN2C(=O)[C@H](Cc2ccc3ccccc3c2)NC(=O)[C@H](CO)NC(=O)[C@H](CCCNC(=N)N)NC(=O)[C@H]([C@@H](C)O)NC(=O)[C@@H]2CSSC[C@H](NC1=O)C(=O)N[C@@H](Cc1ccccc1)C(=O)N1CCC[C@H]1C(=O)N[C@@H](CC(=O)O)C(=O)NCC(=O)N[C@@H](CCCNC(=N)N)C(=O)N2 (cyclo([2Nal]PPICFPDGRCTRS); disulfide 5-11)
Ratio Ki: 87
--
Molecule: CC[C@H](C)[C@@H]1NC(=O)[C@@H]2CCCN2C(=O)[C@@H]2CCCN2C(=O)CNC(=O)[C@H](CO)NC(=O)[C@H](CCCCN)NC(=O)[C@H]([C@@H](C)O)NC(=O)[C@@H]2CSSC[C@H](NC1=O)C(=O)N[C@@H](Cc1ccccc1)C(=O)N1CCC[C@H]1C(=O)N[C@@H](CC(=O)O)C(=O)NCC(=O)N[C@@H](CCCNC(=N)N)C(=O)N2 (cyclo(CFPDGRCTKSGPPI); disulfide 1-7)
Ratio Ki: 1630
--
Molecule: CC[C@H](C)[C@@H]1NC(=O)[C@@H]2CCCN2C(=O)[C@@H]2CCCN2C(=O)[C@H](Cc2ccc(-c3ccccc3)cc2)NC(=O)[C@H](CO)NC(=O)[C@H](CCCNC(=N)N)NC(=O)[C@H]([C@@H](C)O)NC(=O)[C@@H]2CSSC[C@H](NC1=O)C(=O)N[C@@H](Cc1ccccc1)C(=O)N1CCC[C@H]1C(=O)N[C@@H](CC(=O)O)C(=O)NCC(=O)N[C@@H](CCCNC(=N)N)C(=O)N2 (cyclo([Bip]PPICFPDGRCTRS); disulfide 5-11)
Ratio Ki: 63

Task item: Reported Ratio Ki for CC[C@H](C)[C@@H]1NC(=O)[C@@H]2CCCN2C(=O)[C@@H]2CCCN2C(=O)[C@H](Cc2ccc(-c3ccccc3)cc2)NC(=O)[C@H](CO)NC(=O)[C@H](CCCCN)NC(=O)[C@H]([C@@H](C)O)NC(=O)[C@@H]2CSSC[C@H](NC1=O)C(=O)N[C@@H](Cc1ccccc1)C(=O)N1CCC[C@H]1C(=O)N[C@@H](CC(=O)O)C(=O)NCC(=O)N[C@@H](CCCNC(=N)N)C(=O)N2 (cyclo([Bip]PPICFPDGRCTKS); disulfide 5-11) : what is it?
Reply: 25
